Target: T1, cynomolgus monkey DLL4 extracellular domain (cynomolgus monkey)
T1 construct: extracellular domain; also called cynoDLL4 ECD; Cyno DLL4
Assay: SPR (Biacore)
Use 0.0002 s⁻¹ as the dividing line for koff, with the line itself on the y side and lower values as n.

Before answering, review these 5 worked examples.
h1A11.B5 (antibody, V domains shown, also called h1A11.B5 VH / h1A11.B5 VL) VH: EVQLVESGGGLVQPGGSLRLSCAASGFTFRYFPMSWVRQAPGKGLEWVASISGSDGWASYRDSVKGRFTISRDNAKNSLYLQMNSLRAEDTAVYYCARGYYNSPFASWGQGTLVTVSS VL: DIQMTQSPSSLSASVGDRVTITCRASQDIWNNLAWYQQKPGKSPKLLIFDTSYLADGVPSRFSGSGSGTDFTLTISSLQPEDFATYYCQQYDWYPPTFGQGTKLEIK : n
h1A11.G3 (antibody, V domains shown, also called h1A11.G3 VH / h1A11.E12 VL) VH: EVQLVESGGGLVQPGGSLRLSCAASGFTFRYFPMSWVRQAPGKGLEWVASISGSDGWASYRDSVKGRFTISRDNAKNSLYLQMNSLRAEDTAVYYCARGYYNSPFAYWGQGTLVTVSS VL: DIQMTQSPSSLSASVGDRVTITCRASQEIYRNLAWYQQKPGKSPKLLIFDTSVLADGVPSRFSGSGSGTDSTLTISSLQPEDFATYYCQQYTYYPPTFGQGTKLEIK : n
h1A11.A2 (antibody, V domains shown, also called h1A11VH.1 / h1A11.A2 VL) VH: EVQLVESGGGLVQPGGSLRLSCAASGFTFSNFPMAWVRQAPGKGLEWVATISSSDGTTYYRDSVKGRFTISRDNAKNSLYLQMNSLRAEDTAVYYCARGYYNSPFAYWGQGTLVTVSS VL: DIQMTQSPSSLSASVGDRVTITCRASQDIYINLAWYQQKPGKSPKLLIFDTNDLADGVPSRFSGSGSGTDFTLTISSLQPEDFATYYCQQYDYVPPTFGQGTKLEIK : y
h1A11.1 (antibody, V domains shown, humanized IgG; also called hu1A11.1; VH.1/VL.1 1A11) VH: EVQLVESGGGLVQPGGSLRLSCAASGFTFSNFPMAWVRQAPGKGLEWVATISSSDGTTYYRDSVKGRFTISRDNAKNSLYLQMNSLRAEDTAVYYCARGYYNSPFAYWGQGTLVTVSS VL: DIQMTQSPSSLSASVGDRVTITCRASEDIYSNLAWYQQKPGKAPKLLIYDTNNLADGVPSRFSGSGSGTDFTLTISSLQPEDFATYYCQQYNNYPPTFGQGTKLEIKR : y
h1A11.A7 (antibody, V domains shown, also called h1A11VH.1 / h1A11.A7 VL) VH: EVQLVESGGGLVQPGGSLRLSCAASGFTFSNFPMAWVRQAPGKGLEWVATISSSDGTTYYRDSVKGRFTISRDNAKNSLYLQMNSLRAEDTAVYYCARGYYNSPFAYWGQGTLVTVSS VL: DIQMTQSPSSLSASVGDRVTITCRASQDIYINLAWYQQKPGKAPKLLIFDTSDLADGVPSRFSGSGSGTDFTLTISSLQPEDFATYYCQQYDYYPPTFGQGTKLEIK : y

Query :: Is the recorded value of koff equal to or greater than 0.0002 s⁻¹ for this binder? h1A11.B4 (antibody, V domains shown, also called h1A11VH.1 / h1A11.B4 VL) VH: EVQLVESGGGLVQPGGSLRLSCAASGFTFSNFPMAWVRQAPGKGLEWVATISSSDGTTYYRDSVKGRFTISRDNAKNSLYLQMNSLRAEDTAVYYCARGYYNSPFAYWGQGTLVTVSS VL: DIQMTQSPSSLSASVGDRVTITCRASQDIYYNLAWYQQKPGKAPKLLIFDTNILADGVPSRFSGSGSGTDFTLTISSLQPEDFATYFCQQYDYVPPTFGQGTKLEIK
Result :: y

Query :: Confirm if koff reported for the binder h1A11.A8 (antibody, V domains shown, also called h1A11.A8 VH / h1A11VL.1) VH: EVQLVESGGGLVQPGGSLRLSCAASGFTFGNFPMSWVRQAPGKGLEWVASISSSDSWATIGDSVKGRFTISRDNAKNSLYLQMNSLRAEDTAVYYCSRGYYNSPFAYWGQGTLVTVSS VL: DIQMTQSPSSLSASVGDRVTITCRASEDIYSNLAWYQQKPGKAPKLLIYDTNNLADGVPSRFSGSGSGTDFTLTISSLQPEDFATYYCQQYNNYPPTFGQGTKLEIK is 0.0002 s⁻¹ or above.
Result :: n

Query :: Is reported koff greater than or equal to 0.0002 s⁻¹ here: h1A11.C6 (antibody, V domains shown, also called h1A11.C6 VH / h1A11VL.1) VH: EVQLVESGGGLVQPGGSLRLSCAASGFTFRNFPMAWVRQAPGKGLEWVATISSSDGWPTYRDSVKGRFTISRDNAKSSLYLQMNSLRAEDTAVYYCSRGYYNSPFAYWGQGTLVTVSS VL: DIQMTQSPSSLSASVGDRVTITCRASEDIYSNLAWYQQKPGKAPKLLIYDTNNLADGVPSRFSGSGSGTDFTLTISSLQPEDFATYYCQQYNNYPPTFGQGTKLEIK
Result :: n

Query :: Decide: is the reported value of koff for h1A11.H2 (antibody, V domains shown, also called h1A11.H2 VH / h1A11.E12 VL) VH: EVQLVESGGGLVQPGGSLRLSCAASGFTFGNFPMSWVRQAPGKGLEWVASISSSDSWATIGDSVKGRFTISRDNAKNSLYLQMNSLRAEDTAVYYCARGYYNSPFAFWGQGTLVTVSS VL: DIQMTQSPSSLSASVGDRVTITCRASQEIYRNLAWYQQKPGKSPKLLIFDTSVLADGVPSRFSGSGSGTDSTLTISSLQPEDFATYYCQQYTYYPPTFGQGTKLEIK equal to or greater than 0.0002 s⁻¹?
Result :: n
